system: NCI-H23 lung; test: NCI tumour cell line growth inhibition, 48 h
compounds and their reported TGI
recorded-endpoint: TGI

CCCC(=O)Nc1cc(/C=C/C(=O)N2CC(CCl)c3c2cc([N+](=O)[O-])c2ccccc32)n(C)c1 (stereo unspecified) ... > 100 µM
O=C1C2CC=CCC2C(=O)C12CCc1ccccc12 (stereo unspecified) ... > 100 µM
C=CC[N+](CCO)(CCO)CCCCCCCCCCCCCCCCCC ... 44.9 µM
O=CC(Br)C(Br)c1ccccc1 (stereo unspecified) ... 24.8 µM
COC1=C2C[C@H](O)C(C)C[C@@]2(OC)OC1=O (stereo partly specified) ... > 100 µM
O=c1cc(-c2ccccc2)[nH]c2c(Cl)cccc12 ... > 100 µM

###

system: SK-MEL-5 melanoma; assay: NCI tumour cell line growth inhibition, 48 h
compounds and their reported TGI
recorded-endpoint: TGI (µM)

CSc1nc(SC)c2c(C(N)=S)[nH]nc2n1 ... 34.1
CCCCCCCCC(O)C#CC(N)=O (stereo unspecified) ... 24.3
COc1cc(C2c3cc4c(cc3OC3(OC)COC(=O)C23)OCO4)cc(OC)c1OC (stereo unspecified) ... 7.46
CCOc1ccc2nc(-c3cccc(OCC(=O)NC(C)C)c3)nc(Nc3ccc(-c4cn[nH]c4)cc3)c2c1 ... 2.58

###

system: SF-268 CNS; assay: NCI tumour cell line growth inhibition, 48 h
recorded-endpoint: TGI

COC(=O)C(Cc1ccccc1)NC(=O)c1ccc(CNC(=S)NCc2cccc(CNC(=S)NCc3ccccc3)c2)cc1 (stereo not given) ... > 62.5 µM
CCCCOC(=O)c1ccc(NC(=O)CCl)cc1 ... 4.05 µM
CC(=O)NC(C)c1ccc(N=NN2CCCC2)cc1 (stereo not given) ... > 100 µM
CCOc1ccccc1N1C(=O)C(=O)C(c2nc3ccccc3o2)/C(=N\N)C1=O (stereo not given) ... > 100 µM
CCCC(=O)Nc1cc(/C=C/C(=O)N2CC(CCl)c3c2cc([N+](=O)[O-])c2ccccc32)n(C)c1 (stereo not given) ... > 100 µM
CN1C(=O)C(=Cc2cn(Cc3ccccc3)c3ccccc23)C(=O)N(C)C1=O ... > 100 µM
N#Cc1ccc(Nc2cnc3ccc(N)cc3n2)cc1 ... > 100 µM
Nc1nn(CC(O)CO)c(=O)s1 (stereo not given) ... > 100 µM
COc1ccc(/C=N/n2cnc3c(c2=O)S/C(=C2/SC(=S)N(c4ccc(C)cc4)C2=O)N3c2ccccc2)cc1 ... 99.5 µM
COc1ccc2c(c1)CCc1[nH]nc(-c3cc(OC)c(OC)c(OC)c3)c1-2 ... 26.8 µM
O=C(O)C1C(=O)Oc2c(cccc2[N+](=O)[O-])C1O (stereo not given) ... > 100 µM
N#CCSc1c(-c2ccccc2)c(=O)n(-c2ccccc2)c(=S)n1-c1ccccc1 ... > 100 µM
COc1ccc(N2C(N)=C(C#N)C(C#N)(C#N)C2c2cccc([N+](=O)[O-])c2)cc1 (stereo not given) ... 44 µM
Nc1nc2ccc3[nH]ncc3c2c2c1CCCC2 ... 6.18 µM
CC1(C)CCC[C@]2(C)c3cc(O)ccc3CC[C@@H]12 ... 33.4 µM
O=C(NCCCCCCNC(=O)n1cc(F)c(=O)[nH]c1=O)NCCCOCCOCCOCCOCCOCCOCCOCCOCCOCCOCCOCCOCCOCCOCCOCCOCCOCCOCCOCCOCCOCCCNC(=O)C(O)C(O)C(OC1OC(CO)C(O)C(O)C1O)C(O)CO (stereo not given) ... > 100 µM
C[C@]1(C(=O)O)N[C@H](C(=O)O)CS1 ... > 1000 µM
Clc1ccc2nc(CC3CCCC3)[nH]c2c1 ... 40.2 µM
C[C@]12CC[C@H](O)CC1=CC[C@@H]1[C@@H]2CC[C@]2(C)c3nc(Cl)ccc3C[C@@H]12 ... > 75.7 µM
CCCCN=C(NC#N)N(Cc1ccccc1)Cc1ccccc1 ... > 100 µM

###

compounds and their reported TGI
system: UACC-257 melanoma; assay: NCI tumour cell line growth inhibition, 48 h
recorded-endpoint: TGI

NC(=O)C[C@H](NC(=O)C1(NC(=O)[C@H](Cc2ccc(CP(=O)(O)O)cc2)NC(=O)C(=O)O)CCCCC1)C(=O)NCCCc1cccc2ccccc12 ... > 10 µM
COc1c(-c2cccs2)oc2c(CC(=O)O)cccc2c1=O ... > 100 µM
CC(C)=CCCC1(Sc2ccccc2)C(=O)OCC1C=C(C)C (stereo not given) ... 83 µM
CCOC(=O)C1C[C@H]2CO[C@H](c3ccccc3)N2C1=O (stereo not given in full) ... > 100 µM
CN1CCN(C(=O)c2c(NC(=O)NS(=O)(=O)c3ccccc3)sc3c2CCCCC3)CC1 ... > 100 µM
O=C(Cc1ccccc1)N=Nc1c(O)[nH]c2ccccc12 ... > 100 µM
COc1ccc(-c2nn(-c3cccc(Cl)c3)cc2-c2c(C#N)c(=O)n3[nH]c(-c4ccc(C)cc4)nc3c2C#N)cc1 ... 16.7 µM
Cc1ccc(C(=O)C2=CN=C3C(=O)N(c4ccccc4)N(C)C3(C)C2=N)cc1 (stereo not given) ... > 100 µM
CCOc1ccc2nc(-c3cccc(OCC(=O)NC(C)C)c3)nc(Nc3ccc(-c4cn[nH]c4)cc3)c2c1 ... 4.12 µM
COc1ccc([I+]c2ccccc2)cc1 ... > 100 µM

###

system: OVCAR-5 ovarian; experiment: NCI tumour cell line growth inhibition, 48 h
compounds and their reported GI50
recorded-endpoint: GI50

OC(C1CO1)C(O)C1CO1 (stereo unspecified) ... 93.9 µM
C=C1C(=O)O[C@@H]2OC3(C)CCC4C(C)CCC1C42OO3 (stereo partly specified) ... 24.5 µM
O=C(O)c1ccc2c3c(ncnc13)-c1ccccc1C2=O ... 37.9 µM
CN1CCN(C(=O)c2c(NC(=O)NS(=O)(=O)c3ccccc3)sc3c2CCCCC3)CC1 ... 76.3 µM
Cn1c(/C=C(\C#N)c2cccc(C(F)(F)F)c2)nc2c(N3CCOCC3)nc(Cl)nc21 ... 1.32 µM
CC(C)[NH-].CC(C)[NH-].O.O.[Cl][Pt+2][Cl] ... 51.1 µM

###

molecules and their reported TGI
tested on: HL-60(TB) leukemia; assay: NCI tumour cell line growth inhibition, 48 h
recorded-endpoint: TGI (µM)

COc1cc(C=O)c(-c2cc3c(cc2C2(C)OCCS2)OCO3)c(OC)c1OC (stereo unspecified) ... 82.1
CC(C)[NH-].CC(C)[NH-].O.O.[Cl][Pt+2][Cl] ... 83.7
C=CC[N+](CCO)(CCO)CCCCCCCCCCCCCCCCCC ... 2.51
COc1ccc2nc3cc([N+](=O)[O-])ccc3c(NCCCN(CCO)CCO)c2c1 ... 22.7

###

molecules and their reported TGI
system: MOLT-4 leukemia; experiment: NCI tumour cell line growth inhibition, 48 h
recorded-endpoint: TGI (µM)

CCCCCCCC(=O)OCC(C[As](=O)(O)O)OC(=O)CCCCCCC (stereo not given) ... 51.9
Clc1ccc(C(c2ccc(Cl)cc2)N2CCNCC2)cc1 ... 5

###

system: NCI-H23 lung; test: NCI tumour cell line growth inhibition, 48 h; in the data active = GI50 below about 0.43 µM; inactive = the rest
Labels: label 1 (active), label 0 (inactive)

COc1ccc(-c2cn(-c3cccc(C(=O)/C=C/c4ccc(O)c(OC)c4)c3)c(=O)[nH]2)cc1 ... label 0
CN[C@@H]1C[C@H]2O[C@@](C)([C@@H]1OC)n1c3ccccc3c3c4c(c5c6ccccc6n2c5c31)C(=O)N[C@H]4O ... label 1
CN1CCN(C(=O)c2c(NC(=O)NS(=O)(=O)c3ccccc3)sc3c2CCCCC3)CC1 ... label 0

###

compounds and their reported TGI
system: NCI/ADR-RES ovarian; experiment: NCI tumour cell line growth inhibition, 48 h
recorded-endpoint: TGI

O=C1c2cc(-c3ccccc3)ccc2-c2c1c1ccc([N+](=O)[O-])cc1c(=O)n2CCCBr ... > 50 µM
O=C1c2ccccc2-c2nnc(-c3ccc(Cl)cc3)cc21 ... > 10 µM
CCC/C(Cl)=N\OC(=O)Nc1ccc(F)c([N+](=O)[O-])c1 ... 36.6 µM
NC(=O)c1ncn2c(=O)n(CCl)nnc12 ... > 100 µM
CCCCCCCCCCCCCCCCCCOc1ccc(/C=C/C2=[N+](CCCl)CCO2)cc1 ... > 100 µM
CCn1c2ccc(C(=O)CCCN(C)C)cc2c2cc(C(=O)CCCN(C)C)ccc21 ... 21.9 µM
Oc1ccc2ccccc2c1C1NN=C(c2ccccc2)S1 (configuration not stated) ... 62.8 µM
O=C1NC(=O)C(c2ccc(Cl)cc2)=C1Nc1ccc(Cl)c(C(=O)O)c1 ... > 25 µM
CN(C)CCNC(=O)c1cccc2[nH]c(-c3ccncc3)nc12 ... > 100 µM
COc1ccc2c(c1)CCc1[nH]nc(-c3cc(OC)c(OC)c(OC)c3)c1-2 ... < 0.01 µM
COc1ccc(N=N/C(=N/NC(=O)c2cc(Cl)ccc2C(=O)c2ccccc2)c2ccc(N(CCC#N)CCC#N)cc2C)cc1 ... 59.1 µM
Cn1cc(-c2nc(-c3c[nH]c4ccncc34)cs2)c2cc(F)ccc21 ... 4.19 µM
COc1ccc2oc(=Nc3ccc(F)cc3)c(C(N)=O)cc2c1 ... > 100 µM
C[C@]12CC[C@H](O)CC1=CC[C@@H]1[C@@H]2CC[C@]2(C)c3nc(Cl)ccc3C[C@@H]12 ... > 100 µM
Cc1ccc(C(=O)C2=CN=C3C(=O)N(c4ccccc4)N(C)C3(C)C2=N)cc1 (configuration not stated) ... > 100 µM
CCOC(=O)C1C[C@H]2CO[C@H](c3ccccc3)N2C1=O (some centres not stated) ... > 100 µM
CCCCC1(N=[N+]=[N-])C(=O)C2C=CC=C3c4ccccc4N(C1=O)C32 (configuration not stated) ... > 31.6 µM
c1ccc(CCN2CCN=C2Cc2ccccc2)cc1 ... > 100 µM
Nc1nc2ccc3[nH]ncc3c2c2c1CCCC2 ... 5.57 µM
COc1ccc2nc3cc([N+](=O)[O-])ccc3c(NCCCN(CCO)CCO)c2c1 ... 39.9 µM
C[C@H](CN1CC(=O)NC(=O)C1)N1CC(=O)NC(=O)C1 ... > 100 µM
CN1CCN(/C(N)=C(\C#N)C(=O)Nc2ccccc2)CC1 ... > 100 µM

Every entry's value here was drawn from PubChem BioAssay (NCI).
